System: CEM cells HIV-1 protection, formazan growth assay
Assay: NCI AIDS Antiviral Assay
Details: measured here: growth of uninfected CEM cells
pIC50: −log10 of the molar value.
pIC50 values for the compounds below.
measureName: pIC50

* COC[C@H](C)N=CN1CCc2ccccc2C1(Cc1ccccc1)Cc1ccccc1 | < 4.48
* O=C1C[C@@H]2[C@@H](CCC23CC3)N1 | < 2.78
* COc1c(Cc2ccccc2O)c(O)c(Cc2cc(Cc3ccccc3O)ccc2O)c(O)c1C(=O)CCc1ccccc1 | 4.67
* CC(C)N(C(=O)C12C3C4C1C1C2C3C41I)C(C)C (stereo unspecified) | < 3.72
* Cc1n(Cc2ccccc2)nc2sc(N)n[n+]12 | 4.19
* C=CCNC(=S)/N=C/C(C(=O)Nc1ccccc1)=C(/C)O | < 3.70
